# system: D(1A) dopamine receptor (Sus scrofa, UniProt P50130)
# Sequence (P50130 whole entry): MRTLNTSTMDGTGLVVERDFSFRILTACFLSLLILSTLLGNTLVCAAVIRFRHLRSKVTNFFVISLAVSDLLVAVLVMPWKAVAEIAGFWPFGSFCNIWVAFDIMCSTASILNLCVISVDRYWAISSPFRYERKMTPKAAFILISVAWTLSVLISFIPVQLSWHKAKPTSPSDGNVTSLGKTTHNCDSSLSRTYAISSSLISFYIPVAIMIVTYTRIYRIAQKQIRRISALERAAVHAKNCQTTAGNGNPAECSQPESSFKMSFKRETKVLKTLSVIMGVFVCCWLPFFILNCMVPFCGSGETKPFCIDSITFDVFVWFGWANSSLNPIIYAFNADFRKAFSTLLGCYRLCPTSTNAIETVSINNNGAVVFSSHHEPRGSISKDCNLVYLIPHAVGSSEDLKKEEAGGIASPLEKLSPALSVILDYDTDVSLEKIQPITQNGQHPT
# experiment_description: Binding affinity to pig cortical membrane dopamine D1 receptor
Ki for assorted compounds
Write the value in µM as a bare number.

The examples below pair each entry with its known result.
| compound_smiles | unit_annotation | measured_number |
| --- | --- | --- |
| COc1cc(CN2CCN(c3ccc(Cl)cc3)CC2)ccc1OCCF | µM | 5.7 |
| Clc1ccc(N2CCN(Cc3cc4ccccn4n3)CC2)cc1 | µM | 5.5 |

Now for another entry.
// compound `COc1cc(CN2CCN(c3ccccc3OC)CC2)ccc1OCCF` , assay D(1A) dopamine receptor (Sus scrofa, UniProt P50130), Ki value: 5.4

----------
# system: D(2) dopamine receptor (Homo sapiens, UniProt P14416)
# Sequence (P14416 whole entry): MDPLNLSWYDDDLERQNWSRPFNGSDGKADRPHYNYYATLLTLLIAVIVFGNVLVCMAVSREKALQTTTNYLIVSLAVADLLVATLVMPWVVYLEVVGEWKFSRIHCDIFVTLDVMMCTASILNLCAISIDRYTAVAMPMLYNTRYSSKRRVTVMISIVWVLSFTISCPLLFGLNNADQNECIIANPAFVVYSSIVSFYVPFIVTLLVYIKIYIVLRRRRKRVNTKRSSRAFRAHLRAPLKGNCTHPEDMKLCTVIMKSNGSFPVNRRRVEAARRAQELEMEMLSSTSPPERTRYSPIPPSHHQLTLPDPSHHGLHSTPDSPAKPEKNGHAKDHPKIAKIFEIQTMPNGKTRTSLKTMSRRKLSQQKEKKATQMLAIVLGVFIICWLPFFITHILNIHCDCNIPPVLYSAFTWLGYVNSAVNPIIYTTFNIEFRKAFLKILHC
# experiment_description: Displacement of [3H][…] from human cloned dopamine D2 long receptor at 100 uM
Kind request: treat 4% as inclusive, so Activity at 4% or higher is Satisfied, anything lower is Not satisfied.

Use these answered entries as a reference point.
| compound_smiles | label |
| --- | --- |
| COc1cccc(CN2CCN(c3ccc(Cl)c(Cl)c3)CC2)c1 | Satisfied |
| N#Cc1ccc(CN2CCN(c3ccccc3Cl)CC2)cc1 | Not satisfied |
| COc1cccc(N2CCN(Cc3ccccc3Br)CC2)c1 | Not satisfied |
| Cc1ccc(N2CCN(Cc3ccc(C#N)cc3)CC2)cc1 | Not satisfied |

We next turn to a different compound, shown below.
[ask] API: above_or_equal(metric=Activity, cutoff=4%) for item `COc1cccc(CN2CCN(c3ccccc3OC)CC2)c1`
[reply] Satisfied

----------
The molecules listed here are annotated with their Ki.
# system: 5-hydroxytryptamine receptor 2A (Sus scrofa, UniProt P50129)
# Sequence (P50129 whole entry): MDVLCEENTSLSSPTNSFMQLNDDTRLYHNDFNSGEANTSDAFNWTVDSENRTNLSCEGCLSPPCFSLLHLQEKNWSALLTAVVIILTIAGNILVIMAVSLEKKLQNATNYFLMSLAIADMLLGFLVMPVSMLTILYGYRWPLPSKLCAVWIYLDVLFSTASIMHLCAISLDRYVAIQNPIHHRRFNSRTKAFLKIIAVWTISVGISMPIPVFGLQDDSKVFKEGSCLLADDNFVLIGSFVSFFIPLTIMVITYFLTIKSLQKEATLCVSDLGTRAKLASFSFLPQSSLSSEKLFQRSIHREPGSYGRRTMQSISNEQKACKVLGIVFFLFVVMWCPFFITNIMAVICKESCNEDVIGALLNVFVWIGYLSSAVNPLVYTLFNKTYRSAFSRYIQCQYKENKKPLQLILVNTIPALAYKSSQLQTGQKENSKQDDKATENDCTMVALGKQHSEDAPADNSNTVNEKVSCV
# experiment_description: Displacement of [3H]ketanserin from pig cortical membrane 5HT2 receptor
Respond numerically; units are nM and should not be typed.

Example molecules with recorded Ki:
| compound_smiles | system | measured_number |
| --- | --- | --- |
| FCCOc1ccc(CN2CCN(c3ccc(Cl)cc3)CC2)cc1 | 5-hydroxytryptamine receptor 2A (Sus scrofa, UniProt P50129) | 1800 |
| COc1cc(CN2CCN(c3ccccc3OC)CC2)ccc1OCCF | 5-hydroxytryptamine receptor 2A (Sus scrofa, UniProt P50129) | 2100 |

Notebook: `COc1cc(CN2CCN(c3ccccc3OC)CC2)c(OCCF)cc1OC` , Ki read as 280

// `FCCOc1cccc(CN2CCN(c3ccc(Cl)cc3)CC2)c1` : Ki value = 980

----------
# experiment_description: Distribution coefficient, log D at pH 7.4
# Format: physicochemical
# run_parameters: octanol/water
observable: logD
Just the number, please, no unit after it.

The measured logD associated with `COc1cc(CN2CCN(c3ccc(Cl)cc3)CC2)c(OCC[18F])cc1OC` reads 2.8

----------
Item-by-item account of Activity
# system: D(4) dopamine receptor (Homo sapiens) (UniProt P21917)
# Sequence (P21917 whole entry): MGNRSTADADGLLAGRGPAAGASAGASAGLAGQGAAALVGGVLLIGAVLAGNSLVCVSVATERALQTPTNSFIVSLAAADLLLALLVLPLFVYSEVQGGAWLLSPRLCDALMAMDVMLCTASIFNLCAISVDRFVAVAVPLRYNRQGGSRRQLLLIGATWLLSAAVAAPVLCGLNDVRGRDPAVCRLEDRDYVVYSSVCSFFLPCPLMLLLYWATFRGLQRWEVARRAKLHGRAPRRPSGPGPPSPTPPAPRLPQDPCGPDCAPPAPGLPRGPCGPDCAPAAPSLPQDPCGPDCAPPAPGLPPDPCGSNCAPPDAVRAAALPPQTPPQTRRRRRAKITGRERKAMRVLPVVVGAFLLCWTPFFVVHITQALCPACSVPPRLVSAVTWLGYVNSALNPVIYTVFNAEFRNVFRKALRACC
# experiment_description: Displacement of [3H]spiperone from human cloned dopamine D4 receptor at 100 uM
The reply should consist of the numeric value with the unit placed after it.

| compound_smiles | Activity |
| --- | --- |
| COc1cccc(N2CCN(Cc3ccc(C#N)cc3)CC2)c1 | 69% |
| COc1cccc(CN2CCN(c3ccc(C)cc3)CC2)c1 | 45% |
| COc1cccc(CN2CCN(c3cccc(OC)c3)CC2)c1 | 46% |
| COc1cccc(N2CCN(Cc3ccccc3Br)CC2)c1 | 4% |
| N#Cc1ccc(CN2CCN(c3ccc(F)cc3)CC2)cc1 | 47% |

Next item in the queue.
# compound `COc1cccc(CN2CCN(c3ccc(Cl)c(Cl)c3)CC2)c1` ; its Activity = 92%

----------
Activity values by entry
# system: D(4) dopamine receptor (Homo sapiens) (UniProt P21917)
# experiment_description: Displacement of [3H]spiperone from human cloned dopamine D4 receptor at 100 uM
Write the value in % as a bare number.

As a guide, the following entries are already answered.
| compound_smiles | system | unit_annotation | measured_number |
| --- | --- | --- | --- |
| N#Cc1ccc(CN2CCN(c3ccc(Cl)c(Cl)c3)CC2)cc1 | D(4) dopamine receptor (Homo sapiens) (UniProt P21917) | % | 91 |
| Cc1ccc(N2CCN(Cc3ccc(C#N)cc3)CC2)cc1 | D(4) dopamine receptor (Homo sapiens) (UniProt P21917) | % | 59 |
| COc1cccc(CN2CCN(c3ccccc3OC)CC2)c1 | D(4) dopamine receptor (Homo sapiens) (UniProt P21917) | % | 26 |
| COc1ccccc1N1CCN(Cc2ccccc2Br)CC1 | D(4) dopamine receptor (Homo sapiens) (UniProt P21917) | % | 44 |
| N#Cc1ccc(CN2CCN(c3ccccc3Cl)CC2)cc1 | D(4) dopamine receptor (Homo sapiens) (UniProt P21917) | % | 73 |

Measured Activity, `Cc1ccc(N2CCN(Cc3ccccc3Br)CC2)cc1` : 7

get_value(item= `Clc1ccccc1N1CCN(Cc2ccccc2Br)CC1` , readout=Activity) returns 9

Record `COc1cccc(CN2CCN(c3ccc(F)cc3)CC2)c1` , field Activity: 18

Reported Activity for `Clc1ccc(N2CCN(Cc3ccccc3Br)CC2)cc1Cl` was -0

Query `Fc1ccc(N2CCN(Cc3ccccc3Br)CC2)cc1` yields Activity of 4

Item: `COc1ccccc1N1CCN(Cc2ccc(C#N)cc2)CC1` | Activity: 82

Field Activity (entry `COc1cccc(CN2CCN(c3ccccc3Cl)CC2)c1` ) reads 55

----------
# pKi listing for each entry below
# system: UniProt P50130
# experiment_description: Binding affinity to pig cortical membrane dopamine D1 receptor
Quick note: pKi values are minus log10 of concentrations in mol/L.

Worked set:
| compound_smiles | pKi |
| --- | --- |
| FCCOc1cccc(CN2CCN(c3ccc(Cl)cc3)CC2)c1 | 5.29 |
| COc1ccccc1N1CCN(Cc2cccc(OCCF)c2)CC1 | 5.28 |
| COc1cc(CN2CCN(c3ccc(Cl)cc3)CC2)c(OCCF)cc1OC | 5.46 |

`FCCOc1ccc(CN2CCN(c3ccc(Cl)cc3)CC2)cc1` has a reported pKi of 5.85

The compound listed as `COc1cc(CN2CCN(c3ccccc3OC)CC2)c(OCCF)cc1OC` has a reported pKi of 5.17

Reported pKi of `COc1ccccc1N1CCN(Cc2ccc(OCCF)cc2)CC1` : 5.47

----------
# system: D(4) dopamine receptor (Homo sapiens)
# Sequence (P21917 whole entry): as the sequence (P21917 whole entry) above
# experiment_description: Binding affinity to human dopamine D4.4 receptor
observable: pKi
Expect pKi as a plain number equal to -log10 of the molar concentration.

Consider the worked cases shown below.
| compound_smiles | pKi |
| --- | --- |
| COc1cc(CN2CCN(c3ccc(Cl)cc3)CC2)c(OCCF)cc1OC | 8.77 |
| COc1ccccc1N1CCN(Cc2cccc(OCCF)c2)CC1 | 8.80 |
| FCCOc1cccc(CN2CCN(c3ccc(Cl)cc3)CC2)c1 | 7.09 |
| COc1ccccc1N1CCN(Cc2ccc(OCCF)cc2)CC1 | 8.43 |

Then there is this compound:
Lookup result for `FCCOc1ccc(CN2CCN(c3ccc(Cl)cc3)CC2)cc1` ; measured pKi: 7.30

----------
Let's look at some compounds and their measured Activity.
# system: UniProt P35462
# Sequence (P35462 whole entry): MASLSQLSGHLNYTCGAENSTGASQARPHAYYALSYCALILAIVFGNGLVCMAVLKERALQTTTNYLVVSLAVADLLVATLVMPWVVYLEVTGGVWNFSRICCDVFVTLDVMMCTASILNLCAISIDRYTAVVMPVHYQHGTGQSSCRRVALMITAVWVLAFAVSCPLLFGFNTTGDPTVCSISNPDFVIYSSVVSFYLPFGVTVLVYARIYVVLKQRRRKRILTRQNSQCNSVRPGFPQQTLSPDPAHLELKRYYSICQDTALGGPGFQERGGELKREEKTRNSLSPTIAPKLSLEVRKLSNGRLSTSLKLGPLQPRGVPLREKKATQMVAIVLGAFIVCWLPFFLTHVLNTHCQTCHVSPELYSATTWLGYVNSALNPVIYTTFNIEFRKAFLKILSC
# experiment_description: Displacement of [3H]spiperone from human cloned dopamine D3 receptor at 100 uM
Respond with the bare value in %.

Examples with their reported Activity follow.
| compound_smiles | Activity [%] |
| --- | --- |
| Cc1ccc(N2CCN(Cc3ccccc3Br)CC2)cc1 | 16 |
| COc1cccc(CN2CCN(c3ccccc3Cl)CC2)c1 | 13 |
| COc1ccccc1N1CCN(Cc2ccccc2Br)CC1 | 21 |
| Fc1ccc(N2CCN(Cc3ccccc3Br)CC2)cc1 | 1 |
| COc1cccc(N2CCN(Cc3ccc(C#N)cc3)CC2)c1 | 6 |
| N#Cc1ccc(CN2CCN(c3ccccc3Cl)CC2)cc1 | 2 |
| COc1cccc(CN2CCN(c3ccccc3OC)CC2)c1 | 39 |
| COc1cccc(N2CCN(Cc3ccccc3Br)CC2)c1 | -0 |
| COc1cccc(CN2CCN(c3ccc(C)cc3)CC2)c1 | 39 |
| COc1cccc(CN2CCN(c3ccc(F)cc3)CC2)c1 | -0 |

// compound `COc1cccc(CN2CCN(c3ccc(Cl)c(Cl)c3)CC2)c1` , assay UniProt P35462, Activity value: 2

Entry `N#Cc1ccc(CN2CCN(c3ccc(Cl)c(Cl)c3)CC2)cc1` ; assay system UniProt P35462; Activity recorded at -0

----------
# system: D(2) dopamine receptor (Homo sapiens)
# experiment_description: Displacement of [3H][…] from human cloned dopamine D2 long receptor at 100 uM
Activity values, listed per item
Kindly provide the numeric value in % only, without the unit symbol.

See these solved cases before continuing.
| compound_smiles | unit_annotation | measured_number |
| --- | --- | --- |
| COc1ccccc1N1CCN(Cc2ccccc2Br)CC1 | % | 9 |
| Clc1ccccc1N1CCN(Cc2ccccc2Br)CC1 | % | -0 |
| COc1cccc(N2CCN(Cc3ccc(C#N)cc3)CC2)c1 | % | 2 |

Given the compound `N#Cc1ccc(CN2CCN(c3ccc(Cl)c(Cl)c3)CC2)cc1` and test system D(2) dopamine receptor (Homo sapiens), the measured Activity is -0
